# assayProtocol: HUVEC growth inhibition – cell-based, human, primary screen (AID 575);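 further: 100% = median of untreated cell wells with 0.1% DMSO on each plate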
# particulars: HUVEC proliferation, CellTiter-Glo luminescence, 72 h; at 10 µM; stronger effect = lower value
endpointLabel: viability (%)
Unit % implied. Number only.

See these solved cases before continuing.
{"compound": "Cc1ccc2nc(-c3ccc4c(c3)OCCO4)cc(C(=O)O)c2c1", "viability, %": 104}
{"compound": "CCCC1CCC(C(=O)Nn2c(C)nc3ccccc3c2=O)CC1 (configuration not stated)", "viability, %": 104}
{"compound": "Cn1ncc2c(Nc3ccccc3Br)ncnc21", "viability, %": 101}
{"compound": "Cc1cc(NC(=O)C2CCCC2)nc2c1c(=O)oc1ccccc12", "viability, %": 60.3}
{"compound": "Oc1cccc2ccc(Nc3ccccn3)nc12", "viability, %": 2.4}
{"compound": "COCCCNC(=O)CSc1nc2ccc(N3CCOCC3)cc2c(=O)n1CCc1ccccc1", "viability, %": 70.3}
{"compound": "CC(CCc1ccccc1)NC(=O)C1CCN(S(=O)(=O)c2cnc[nH]2)CC1 (configuration not stated)", "viability, %": 96.4}
{"compound": "Cn1c(Cc2cccs2)nnc1SCC(=O)N1CCc2ccccc21", "viability, %": 94.1}

What the record says about COCc1nnc(SCC(=O)NC(C)c2ccccc2)n1-c1ccccc1 (configuration not stated) : viability is 101

What the record says about CCCCn1nnnc1NCc1cccs1 : viability is 97

What the record says about CCN(CC)CCCNc1oc(-c2cccc(Cl)c2)nc1C#N : viability is 74.7

What the record says about O=C(NCc1ccco1)C1Cc2ccccc2CN1S(=O)(=O)c1ccccc1F (configuration not stated) : viability is 57.5

###

Quick reference: viability of the listed items.
# assayProtocol: SK-BR-3 cell growth inhibitors, pilot screen, 24 h, human (AID 572);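 further: compound exposure lasted between 18 and 24 h rather than exactly 24 h; 100% = carrier-treated control wells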
# particulars: SK-BR-3 viability, CellTiter-Glo luminescence, at 10 µM, stronger effect = lower value
Unit % implied. Number only.

See these solved cases before continuing.
{"compound": "COc1ccccc1-c1cc(C(=O)Nc2cc(C)nn2-c2ccccc2)no1", "endpointValue": 89}
{"compound": "OC(CCCN1CCC(O)(c2ccc(Cl)cc2)CC1)c1ccc(F)cc1 (stereo unspecified)", "endpointValue": 89}
{"compound": "[O-][n+]1onc2c1CCc1nnc(-c3ccccc3)cc1-2", "endpointValue": 93.5}

What the record says about COC(=O)CCC(NC(=O)c1cc(-c2ccc3c(c2)OCCO3)oc1C)C(=O)OC (stereo unspecified) : viability is 91

What the record says about CC1(C)C(c2cccs2)=[N+]([O-])C2(CCCCC/C2=N\O)N1O (stereo unspecified) : viability is 99

What the record says about Cc1c(C=NCCOCc2ccccc2)cnn1C : viability is 92

What the record says about CCOC(=O)C1(C(=O)OCC)C(c2ccccc2)CC(O)N1C(C)=O (stereo unspecified) : viability is 116

What the record says about CN1CCc2c(sc3c2c(=O)n(-c2cccc(Cl)c2)c2nncn32)C1 : viability is 102

###

# assayProtocol: SK-BR-3 cell growth inhibitors, pilot screen, 24 h, human (AID 572);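 further: compound exposure lasted between 18 and 24 h rather than exactly 24 h; 100% = carrier-treated control wells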
# particulars: SK-BR-3 viability, CellTiter-Glo luminescence, at 10 µM, stronger effect = lower value
endpointLabel: viability (%)
Unit % implied. Number only.

See these solved cases before continuing.
{"compound": "O=c1c2[nH]c3ccc(Cl)cc3c2ncn1Cc1ccccn1", "viability [%]": 94}
{"compound": "COc1ccc(CNc2oc(COc3ccccc3Cl)nc2C#N)cc1", "viability [%]": 84}
{"compound": "CCOC(=O)c1cc(-c2ccc(Cl)s2)nc2c1c(C)nn2C", "viability [%]": 66.5}

What the record says about O=C(CCn1c(=O)oc2ccccc21)N1CCN(c2ccccc2Cl)CC1 : viability is 72

What the record says about COc1ccc(N2C(=O)C(Cl)=C(N3CCCC3)C2=O)cc1 : viability is 97

What the record says about COCCn1nnnc1C(c1cc2ccc(OC)cc2[nH]c1=O)N1CCc2ccccc2C1 (stereo not drawn) : viability is 89

###

# assayProtocol: reversal of MRP1-mediated doxorubicin resistance, pilot screen, H69AR cells, doxorubicin co-treatment (AID 601)
# particulars: H69AR cells + 2 uM doxorubicin, CellTiter-Glo, 72 h; at 10 µM; stronger effect = higher value
endpointLabel: differential viability (reversal) (%)
Unit % implied. Number only.

See these solved cases before continuing.
{"compound": "CC(C)CC(c1nnnn1C(C)(C)C)N1CCN(C2CCCC2)CC1 (stereo unspecified)", "unitTag": "%", "differential viability (reversal)": 10.4}
{"compound": "COc1ccc(-c2nc(N)nc(C)c2Oc2ccccc2Br)c(O)c1", "unitTag": "%", "differential viability (reversal)": -12.7}
{"compound": "Cc1nnc2ccc(N3CCC4(CC3)OCCO4)nn12", "unitTag": "%", "differential viability (reversal)": 11.1}
{"compound": "COC(=O)c1ccc(-c2ccco2)n1Cc1nc(-c2ccc(OC)c(OC)c2)oc1C", "unitTag": "%", "differential viability (reversal)": -8.4}
{"compound": "COC(=O)c1ccc(CSc2ncnc3c2nnn3-c2ccc(OC)cc2)o1", "unitTag": "%", "differential viability (reversal)": -10.7}

The record that follows has no differential viability (reversal) shown yet.
What the record says about Cc1ccc2nsnc2c1S(=O)(=O)N1CCN(Cc2ccc3c(c2)OCO3)CC1 : differential viability (reversal) is 1.65

###

# assayProtocol: reversal of MRP1-mediated doxorubicin resistance, pilot screen, H69AR cells, doxorubicin co-treatment (AID 601)
# particulars: H69AR cells + 2 uM doxorubicin, CellTiter-Glo, 72 h; measured here: viability with 2 uM doxorubicin; at 10 µM; stronger effect = lower value
endpointLabel: viability

See these solved cases before continuing.
{"molecule": "CCOc1ccc(OCC)c(NC(=O)C2CCN(S(=O)(=O)c3cnc[nH]3)CC2)c1", "viability": "100%"}
{"molecule": "O=C(COC(=O)c1cccc(S(=O)(=O)N2CCc3ccccc32)c1)NC1CCS(=O)(=O)C1 (stereo not given)", "viability": "101%"}

What the record says about CCC(=O)c1ccc(OCC(=O)N2CCc3cc(OC)c(OC)cc3C2)cc1 : viability is 94.1%

What the record says about CC(=O)N1CCN(c2ccc(NC(=O)c3ccc(C(C)(C)C)cc3)cc2)CC1 : viability is 56.6%

What the record says about Cc1cccc(NC(=O)CC2NC3CCCCC3NC2=O)c1 (stereo not given) : viability is 90.7%

###

# assayProtocol: reversal of MRP1-mediated doxorubicin resistance, pilot screen, H69AR cells, doxorubicin co-treatment (AID 601)
# particulars: H69AR cells + 2 uM doxorubicin, CellTiter-Glo, 72 h; measured here: viability with 2 uM doxorubicin; at 10 µM; stronger effect = lower value
Label scheme for viability: c1: < 80%; c2: ≥ 80% and < 90%; c3: ≥ 90%

{"molecule": "COc1ccc(NS(=O)(=O)c2ccc(N)cc2)nn1", "category": "c3"}
{"molecule": "Cc1ccc2nc(-c3ccccn3)cc(C(=O)N3CCN(c4ncccn4)CC3)c2c1", "category": "c2"}

Which class holds O=C(c1ccc(Cl)cc1)N1CCCOC1 ?
c2

Which class holds CCC(=O)N1CCc2cc(Br)cc(S(=O)(=O)C3(C(=O)OC)CC3)c21 ?
c2

Which class holds O=C(NC1(C(F)(F)F)NC(=O)N(Cc2ccco2)C1=O)c1cccnc1 (centres undefined) ?
c3

Which class holds c1ccc(-c2oc3ncnc(NCCN4CCOCC4)c3c2-c2ccccc2)cc1 ?
c1

Which class holds CC1CN(C(=O)CSc2ncnc3sccc23)CC(C)O1 (centres undefined) ?
c3

Which class holds CSc1nc(N2CCOCC2)c2c(c1C#N)CCCCC2 ?
c1

Which class holds Cc1cc(C(=O)Nc2cccnc2)no1 ?
c3

Which class holds O=C(CSc1nc2ccccc2c(=O)n1Cc1ccco1)NCc1ccccc1 ?
c2

Which class holds COc1ccccc1C(O)P(=O)(OC(C)C)c1ccc(N(C)C)cc1 (centres undefined) ?
c2

Which class holds Cc1ccccc1OCCn1c(=O)oc2ccccc21 ?
c1

###

# assayProtocol: reducers of endogenous Her2 protein level, primary screen, SKBR3 breast tumor cells, AlphaScreen, ATP viability (AID 461);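 further: percent of carrier control wells set as 100% viability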
# particulars: 18-24 h, measured here: SKBR3 viability, ATP luminescence, at 10 µM
Quick reference: viability of the listed items.
Unit % implied. Number only.

See these solved cases before continuing.
{"compound": "COC(=O)c1ccc(Oc2nc(NC(C)C)nc(N(C)C)n2)cc1", "viability (%)": 102}
{"compound": "Cc1cccc(OCC(=O)N2CCC(c3ccccc3)C2)c1 (stereo not drawn)", "viability (%)": 104}

What the record says about Cn1cnnc1Sc1nc2c(c(=O)n(C)c(=O)n2C)n1C : viability is 87

What the record says about O=C(Nc1ccc(SC(F)F)cc1)c1ccc2nccnc2c1 : viability is 91.5

What the record says about CCOC(=O)N1CCN(CCC(=O)c2ccc(Cl)cc2)CC1 : viability is 106

What the record says about C(#Cc1ccccc1)Cn1nnc2ccccc21 : viability is 80.5

What the record says about COCc1nnc(NS(=O)(=O)c2ccc(Br)cc2)s1 : viability is 99.5

What the record says about Cc1n[nH]c(C)c1S(=O)(=O)Nc1ccc2c(c1)OCCO2 : viability is 93

What the record says about O=C(NC1CCCC1)C(c1cccs1)N(C(=O)c1ccno1)c1ccccc1 (stereo not drawn) : viability is 57.5

What the record says about Cc1cc(C)c2c(n1)nn1c(N3CCN(c4ccccc4C)CC3)cc(C)nc21 : viability is 73.5

What the record says about CCN(CC)C(=O)C1CCC(CNS(=O)(=O)c2cccc3cccnc23)CC1 (stereo not drawn) : viability is 92

What the record says about Cc1nnc(SCC(=O)NC(C)(C)C)n1CCc1ccccc1 : viability is 93.5

What the record says about COC(=O)c1cc(=O)n2c(-c3ccc(OC)cc3)csc2n1 : viability is 110

Reference source for all entries: PubChem BioAssay
